# Test system: U937
# method description: Cell growth inhibitory activity (Almar Blue), U937
# Type: cell-based
# experimental setup: Homo sapiens, U-937; U937 cancer cells, cultured for 72 hours
result type: IC50 (nM)

[[record]]
molecule = "C/C=C(/C)C1OC2C(C)=CC(C)(/C=C/C(=O)O)C3C(C)=CC1(C)C23C (stereo not shown)"
test_system = "U937"
measured_result = 1100

